Measured MIC accompanies every entry in the list below.
System: Klebsiella pneumoniae ATCC 700603
measurement description: Minimum Inhibitory Concentration (MIC), agar plate incubation
Type: cell-based
assay setup: Klebsiella pneumoniae, ATCC700603, read-out: Minimum Inhibitory Concentration (MIC)

{"chem smiles": "NC(=O)C[C@H](O/N=C(\\C(=O)N[C@@H]1C(=O)N2C(C(=O)[O-])=C(C[N+]3(CCNC(=O)c4ccc(O)c(O)c4Cl)CCCC3)CS[C@H]12)c1csc(N)n1)C(=O)O", "MIC, µg/mL": 0.5}
{"chem smiles": "C[C@@H](C[N+]1(CC2=C(C(=O)O)N3C(=O)[C@@H](NC(=O)/C(=N\\OC(C)(C)C(=O)[O-])c4csc(N)n4)[C@H]3SC2)CCCC1)NC(=O)c1ccc(O)c(O)c1Cl", "MIC, µg/mL": 0.25}
{"chem smiles": "Nc1nc(/C(=N/O[C@H](C(=O)O)c2ccccc2)C(=O)N[C@@H]2C(=O)N3C(C(=O)[O-])=C(C[N+]4(CCNC(=O)c5ccc(O)c(O)c5Cl)CCCC4)CS[C@H]23)cs1", "MIC, µg/mL": 0.125}
{"chem smiles": "CC(C)(O/N=C(\\C(=O)N[C@@H]1C(=O)N2C(C(=O)[O-])=C(C[N+]3(CCNC(=O)c4ccc(O)c(O)c4Cl)CCCCCC3)CS[C@H]12)c1csc(N)n1)C(=O)O", "MIC, µg/mL": 0.125}
